B1: CPEB3 Ribozyme (parent)
chain: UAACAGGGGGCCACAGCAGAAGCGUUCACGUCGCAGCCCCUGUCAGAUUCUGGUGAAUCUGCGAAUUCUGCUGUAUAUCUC

# Variants of: B1
# assayMethodText: self-cleavage, relative activity (ratio to wild type); higher = more cleavage; in vitro, sequencing
Give self-cleavage for every item shown.
Give bare numbers.

>>> datavalue("U54C C68G")
0.29

// for each variant in input: emit self-cleavage
1. G30A U31C
2. A18G U49C

# output
0.35
0.29
